Source listed as patent US20240108746A1.

target-system: T1, Biotinylated CD3-specific binding domain SEQ ID NO: 14 (biotinylated (site not stated))
T1 construct: Ligand on the neutravidin (NLC) SPR chip
T1 chain: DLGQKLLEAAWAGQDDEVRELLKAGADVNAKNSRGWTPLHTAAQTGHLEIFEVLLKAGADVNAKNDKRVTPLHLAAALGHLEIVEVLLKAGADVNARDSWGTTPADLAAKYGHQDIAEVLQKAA
procedure-details: calculated from SPR koff (ln2/koff)
measured-quantity: Blocking T1/2 (h)
Numbers only here, please. The scale is h.

[Q] Which Blocking T1/2 is reported for this binder? Binder #1 (designed binder, expressed in E. coli and purified by its His-tag) MRGSHHHHHHGSDLGKKLLQAARAGQLDEVRELLKAGADVNAKDFKGLTPLHLAAAHGHLEIVEVLLKAGADVNAKDVYGWTPLHIAAASGHLEIVEVLLKAGADVNAKDWLGITPLHLAASHGHLEIVEVLLKAGADVNAQDKSGKTPADLAARAGHQDIAEVLQKAA
[A] 7.1
